Data provenance: PubChem BioAssay

Measured z-score by item
Assay: mitochondrial membrane potential change in A549 cells, profiling panel, cell-based, JC-1 fluorescence, basal, 24 h, 100 nL (AID 1138);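 also: A549 lung adenocarcinoma cells under basal conditions with no added stimulus; test concentration not given here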
Settings: higher = more signal
# print the numeric value only

| COMPOUND SMILES | VALUE |
| --- | --- |
| C[N+](C)(C)CCCC[C@@H]1NC(=O)[C@H]2C[C@@H](C(=O)NCCCCCCNC(=O)CS)[C@@H](c3cccc(OCCO)c3)N2C1=O | -0.32 |
| O=C1c2ccccc2[C@](Cc2ccccc2I)(C(=O)NCC(F)(F)F)[C@H](c2ccc(CO)cc2)N1Cc1ccccc1Cl | 0.423 |
| COCCOC(=O)N1C(=O)[C@@]2(c3cc(C#CCC(C(=O)OC)C(=O)OC)ccc31)[C@H](C(=O)Nc1nc3ccccc3s1)[C@H]1C(=O)O[C@H](c3ccccc3)[C@H](c3ccccc3)N1[C@@H]2c1ccccc1OCCO | -2.07 |
| COc1ccc([C@H]2OC[C@@H]3C[C@@H](Cc4ccccc4)C(=O)N32)cc1 | 1.25 |
| O=C(CS)NCCCCCCNC(=O)[C@@H]1C[C@@H]2C(=O)N[C@@H](Cc3ccccc3)C(=O)N2[C@@H]1c1cccc(OCCO)c1 | -0.714 |

Next molecule, please.
Task: Dear colleague, please send me the reported z-score for O=C1O[C@@H](c2ccccc2)[C@@H](c2ccccc2)N2[C@@H](c3ccccc3OCCO)[C@]3(C(=O)Nc4ccccc43)[C@@H](C(=O)Nc3nc4ccccc4s3)[C@H]12 when you can.
Output: -2

* * *

Target: Left-right determination factor 2 (Homo sapiens) (UniProt O00292)
Sequence (O00292 whole entry, looked up): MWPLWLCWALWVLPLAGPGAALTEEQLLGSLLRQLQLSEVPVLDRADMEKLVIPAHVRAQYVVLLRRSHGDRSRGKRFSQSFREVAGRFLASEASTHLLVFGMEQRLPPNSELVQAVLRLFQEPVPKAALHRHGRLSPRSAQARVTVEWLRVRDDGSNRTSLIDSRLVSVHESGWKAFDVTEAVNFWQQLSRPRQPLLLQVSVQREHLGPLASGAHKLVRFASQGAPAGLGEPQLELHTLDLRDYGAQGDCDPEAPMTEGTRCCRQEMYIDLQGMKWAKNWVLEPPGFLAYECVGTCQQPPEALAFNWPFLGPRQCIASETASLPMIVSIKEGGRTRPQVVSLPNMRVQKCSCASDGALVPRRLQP
Assay: LEFTY2 binders on small-molecule microarrays, primary screen, biochemical, small-molecule microarray, 635 nm fluorescence scan (AID 1110)
Settings: LEFTY2 binding, higher = more signal
Measured composite z-score by item
# print the numeric value only

| COMPOUND | EXPERIMENTAL READOUT | VALUE |
| --- | --- | --- |
| O[C@@H](Cc1ccccc1)[C@H]1C2C=CCCC=C2CN1Cc1cccc(Cl)c1 (some centres undefined) | composite z-score | 0.702 |

Next compound, please.
Task: Write composite z-score of CO[C@H]1O[C@H](CO)[C@@H](OC(=O)Nc2ccc(Oc3ccccc3)cc2)[C@H](OC(=O)Nc2ccc3c(c2)OCO3)[C@H]1OC(=O)Nc1ccc2c(c1)OCO2 ; system used: Left-right determination factor 2 (Homo sapiens) (UniProt O00292)
Output: 0.467

* * *

System: glycogen synthase kinase-3 (GSK3A per assay name; protocol says GSK3B)
Assay: GSK3 binders on small-molecule microarrays, primary screen, biochemical, small-molecule microarray, 635 nm fluorescence, GSK3A (AID 1103); also: the record names both GSK3A and GSK3B
Details: small-molecule microarray binding, fluorescence 635 nm; higher = more signal
EXPERIMENTAL READOUT: composite z-score
# print the numeric value only

# annotated cases, reported composite z-score shown
| MOLECULE | SYSTEM TESTED | composite z-score |
| --- | --- | --- |
| COC(=O)[C@@]1(Cc2ccccc2)N=C(c2ccc(OCCCO)cc2)O[C@H]1c1ccccc1 | glycogen synthase kinase-3 (GSK3A per assay name; protocol says GSK3B) | 0.319 |
| COC(=O)[C@@]1(Cc2ccc(F)cc2)[C@H]2c3cc(C(=O)N(C)C)n(Cc4ccc(Cl)c(C(F)(F)F)c4)c3C[C@H]2CN1C(=O)c1ccccc1 | glycogen synthase kinase-3 (GSK3A per assay name; protocol says GSK3B) | 1.31 |
| C=CCOC(=O)[C@H]1[C@@H]2C(=O)O[C@@H](c3ccccc3)[C@@H](c3ccccc3)N2[C@@H](c2ccc(OCCOC(=O)[C@H]3C[C@H]4C(=O)N[C@@H](CCCCN(C)C)C(=O)N4[C@H]3c3ccc(O)cc3)cc2)[C@]12C(=O)Nc1ccc(I)cc12 | glycogen synthase kinase-3 (GSK3A per assay name; protocol says GSK3B) | 1.32 |
| CCOC(=O)C[C@H]1[C@H](OC(=O)c2ccccc2-c2ccccc2)[C@@H](NC(=O)CC(C)C)c2cc(OCCCO)ccc2N1C(=O)Cc1ccc(OC)cc1 | glycogen synthase kinase-3 (GSK3A per assay name; protocol says GSK3B) | -0.199 |
| COc1cc2c(cc1O)C(c1cccs1)N(C)CC2 (centres undefined) | glycogen synthase kinase-3 (GSK3A per assay name; protocol says GSK3B) | -0.995 |
| C=CCNC(=O)[C@H]1[C@@H]2C(=O)O[C@@H](c3ccccc3)[C@@H](c3ccccc3)N2[C@@H](c2ccccc2OCCO)[C@]12C(=O)Nc1ccc(C#CCCO)cc12 | glycogen synthase kinase-3 (GSK3A per assay name; protocol says GSK3B) | -1.03 |
| CN1C(=O)C2C=CC(C(O)C#Cc3ccccc3)N(N3CCCCC3)C2C1=O (centres undefined) | glycogen synthase kinase-3 (GSK3A per assay name; protocol says GSK3B) | 0.216 |
| COC(=O)[C@H](Cc1ccccc1)N1CC2=C[C@@H](C3CC3)n3c(=O)n(C)c(=O)n3[C@H]2[C@@H]1[C@@H](O)Cc1ccccc1 | glycogen synthase kinase-3 (GSK3A per assay name; protocol says GSK3B) | 0.658 |
| C=CCC(OC(C)=O)[C@@H]1[C@@H](N(Cc2ccc(-c3ccccc3)cc2)C(=O)c2cccc3ccccc23)c2cc(OCCCO)ccc2N1C(=O)c1ccc(-c2ccccc2)cc1 (some centres undefined) | glycogen synthase kinase-3 (GSK3A per assay name; protocol says GSK3B) | 0.366 |
| C=CCC(OC(C)=O)[C@@H]1[C@@H](N(Cc2cccc3ccccc23)C(=O)c2ccc(-c3ccccc3)cc2)c2cc(OCCCO)ccc2N1C(=O)c1ccc2ccccc2c1 (some centres undefined) | glycogen synthase kinase-3 (GSK3A per assay name; protocol says GSK3B) | 0.293 |

Task: Dear colleague, please send me the reported composite z-score for C=C(/C(=C/C[C@H](OC(C)=O)c1ccccc1OCCO)c1cnc2ccccc2c1)C(C)C when you can.
Output: 0.311

Task: Dear colleague, please send me the reported composite z-score for NCCCCCNC(=O)[C@@H]1C[C@@H]2C(=O)N[C@@H](Cc3ccccc3)C(=O)N2[C@@H]1c1ccc(O)cc1 when you can.
Output: 1.17

Task: Dear colleague, please send me the reported composite z-score for Cc1ccc(S[C@]2(C(=O)NCCCN(C)C)CC(=O)N(Cc3ccccc3C(F)(F)F)[C@@H]2c2ccc(CO)cc2)cc1 when you can.
Output: -0.761

Task: Dear colleague, please send me the reported composite z-score for CC(C)C(=C=CC[C@H](O)c1ccc(OCCO)cc1)CCO when you can.
Output: 0.145
